Target: PRKX (human)
Experiment: KINOMEscan competition binding
Details: compound 10.0 µM
measuredMetric: kinase still bound, per cent of control (%)
Please respond with the number in % and leave the unit unwritten.

Need kinase still bound, per cent of control of `COc1cc2c(Nc3ccc(NC(=O)c4ccccc4)cc3)ncnc2cc1OCCCN1CCOCC1` , thanks. 81

Then this compound: `C=CC(=O)Nc1ccc(C(=O)c2sc(Nc3ccc(N4CCN(C)CC4)cc3OC)nc2N)cc1` 99

Then this compound: COc1cc(C)c(Sc2cnc(NC(=O)c3ccc(CNC(C)C(C)C)cc3)s2)cc1C(=O)N1CCN(C(C)=O)CC1 (stereo not given) 100

Then this compound: `COc1cc2ncnc(Nc3cccc(Cl)c3)c2cc1OC` 100

Then this compound: `CCc1nc(-c2cccc(C)c2)c(-c2ccnc(NC(=O)c3ccccc3)c2)s1` 100

* * *

Biological target: STK3 (human)
Test: KINOMEscan competition binding
Details: compound 10.0 µM
measuredMetric: kinase still bound, per cent of control (%)
Please respond with the number in % and leave the unit unwritten.

Need kinase still bound, per cent of control of `Cc1cn(-c2cc(C(=O)Nc3ccc(C)c(NC(=O)c4ccno4)c3)cc(C(F)(F)F)c2)cn1` , thanks. 100

Then this molecule: CC1=C(C(=O)Nc2cc3cn[nH]c3cc2F)C(c2ccc(C(F)(F)F)cc2)CC(=O)N1 (stereo not drawn) 63

Then this molecule: `C=CC(=O)Nc1ccc(C(=O)c2sc(Nc3ccc(N4CCN(C)CC4)cc3OC)nc2N)cc1` 98

Then this molecule: `CCN1CCN(Cc2ccc(NC(=O)c3ccc(C)c(/C=C/c4cnc5[nH]ccc5c4OC)c3)cc2C(F)(F)F)CC1` 5.2

Then this molecule: `COc1ccc(N(C(=O)Oc2cc(C(=O)Nc3cccc(C(F)(F)F)c3)ccc2C)c2ccnc(Nc3ccc(N4CCN(C)CC4)cc3)n2)c(OC)c1` 100

Then this molecule: `CCN(CCO)CCCOc1ccc2c(Nc3cc(CC(=O)Nc4cccc(F)c4)[nH]n3)ncnc2c1` 100

Then this molecule: `N#Cc1cc(-c2ccnc(Nc3ccc(-n4cnc(-c5cccnc5)n4)cc3)n2)cc(N2CCOCC2)c1` 100

Then this molecule: `CC(=O)c1c(C)c2cnc(Nc3ccc(N4CCNCC4)cn3)nc2n(C2CCCC2)c1=O` 59

* * *

Target: MAP2K6 (human) (UniProt P52564)
Sequence (P52564 whole entry, looked up): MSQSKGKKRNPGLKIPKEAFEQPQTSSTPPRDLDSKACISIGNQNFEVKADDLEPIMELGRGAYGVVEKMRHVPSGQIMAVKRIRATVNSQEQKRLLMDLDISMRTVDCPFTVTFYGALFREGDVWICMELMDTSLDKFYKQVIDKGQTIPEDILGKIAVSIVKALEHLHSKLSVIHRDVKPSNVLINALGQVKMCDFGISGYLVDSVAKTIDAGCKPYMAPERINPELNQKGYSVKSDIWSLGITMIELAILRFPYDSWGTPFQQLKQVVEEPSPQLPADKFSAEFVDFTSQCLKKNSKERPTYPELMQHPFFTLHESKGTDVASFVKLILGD
Experiment: KINOMEscan competition binding
Conditions: compound 10.0 µM
measuredMetric: kinase still bound, per cent of control (%)
Please respond with the number in % and leave the unit unwritten.

Need kinase still bound, per cent of control of `CC(=O)c1c(C)c2cnc(Nc3ccc(N4CCNCC4)cn3)nc2n(C2CCCC2)c1=O` , thanks. 45

Then this compound: `O=c1[nH]c2ccccc2n1C1CCN(Cc2ccc(-c3nc4cc5[nH]cnc5cc4nc3-c3ccccc3)cc2)CC1` 100

Then this compound: `Cc1cn(-c2cc(C(=O)Nc3ccc(C)c(NC(=O)c4ccno4)c3)cc(C(F)(F)F)c2)cn1` 100

Then this compound: CC1=C(C(=O)Nc2cc3cn[nH]c3cc2F)C(c2ccc(C(F)(F)F)cc2)CC(=O)N1 (stereo not drawn) 95

Then this compound: `COc1ccc(N(C(=O)Oc2cc(C(=O)Nc3cccc(C(F)(F)F)c3)ccc2C)c2ccnc(Nc3ccc(N4CCN(C)CC4)cc3)n2)c(OC)c1` 100

Then this compound: `CCc1nc(-c2cccc(C)c2)c(-c2ccnc(NC(=O)c3ccccc3)c2)s1` 79

Then this compound: `COc1cc2c(Nc3ccc(NC(=O)c4ccccc4)cc3)ncnc2cc1OCCCN1CCOCC1` 86

Then this compound: `COc1cc(N2CCC(C(N)=O)CC2)ccc1Nc1nc(N)c(Cl)c(Nc2ccccc2S(=O)(=O)C(C)C)n1` 100
